TEST SUMMARY: Lethal dose against KB-7d cells when treated for 30 min
Assay type: toxicity, cell-based
RUN CONDITIONS: human, read-out: LD50
Reported CC50 at 0.5 h values for a set of molecules

Answered examples (2):
COc1cc([C@@H]2c3cc4c(cc3[C@@H](Nc3ccc([N+](=O)[O-])cc3)[C@H]3COC(=O)[C@H]23)OCO4)cc(OC)c1OC(=O)CCl ... > 10 µM
COc1cc([C@@H]2c3cc4c(cc3[C@@H](Nc3ccc([N+](=O)[O-])cc3)[C@H]3COC(=O)[C@H]23)OCO4)cc(OC)c1OC(C)=O ... < 10 µM

Report CC50 at 0.5 h for "COc1cc([C@@H]2c3cc4c(cc3[C@@H](Nc3ccc([N+](=O)[O-])cc3)[C@H]3COC(=O)[C@H]23)OCO4)cc(OC)c1O" please.
< 10 µM

Given the entry "COc1cc([C@@H]2c3cc4c(cc3[C@@H](Nc3ccc([N+](=O)[O-])cc3)[C@H]3COC(=O)[C@H]23)OCO4)cc(OC)c1OC(=O)C(F)(F)F" , report its measured CC50 at 0.5 h.
< 10 µM

Origin of the recorded values: ChEMBL document CHEMBL1139443
